The molecules listed here are annotated with their Post-emerge Herbicidal Activity IPOHE.
System: ivyleaf morningglory (Ipomoea hederacea, IPOHE)
Experiment: Post-emerge test, greenhouse herbicide activity screening
Format: in vivo
Settings: 63 g ai/ha; phytotoxicity rating 0-100 (0 no damage, 100 complete death), 14 days after application
Just the number.

molecule: CCOC(=O)C(C)Oc1c(Cl)cc(F)c(-n2c(=O)cc(C(F)(F)F)n(C)c2=O)c1N (stereo not shown)
Post-emerge Herbicidal Activity IPOHE: 90

molecule: COc1c(Cl)cc(F)c(-n2c(=O)c(N)c(C(F)(F)F)n(C)c2=O)c1N
Post-emerge Herbicidal Activity IPOHE: 20

molecule: CCn1c(C(F)(F)F)cc(=O)n(-c2c(F)cc(Cl)c(OC)c2N)c1=O
Post-emerge Herbicidal Activity IPOHE: 0

molecule: COc1c(Cl)cc(F)c(-n2c(=O)cc(C(F)(F)F)n(C)c2=O)c1N(C(=O)C1CC1)C(=O)C1CC1
Post-emerge Herbicidal Activity IPOHE: 0

molecule: CC(C)Oc1c(Cl)cc(F)c(-n2c(=O)cc(C(F)(F)F)n(C)c2=O)c1N
Post-emerge Herbicidal Activity IPOHE: 95

Prompt: Name the reported Post-emerge Herbicidal Activity IPOHE value associated with the molecule `COc1c(Cl)cc(F)c(-n2c(=O)cc(C(F)(F)F)n(C)c2=O)c1N=C(Cl)C(Cl)(Cl)Cl`
Response: 20

Prompt: Name the reported Post-emerge Herbicidal Activity IPOHE value associated with the molecule `COc1c(Cl)cc(F)c(-n2c(=O)cc(C(F)(F)F)n(C)c2=O)c1NC(=O)CC#N`
Response: 40

Prompt: Name the reported Post-emerge Herbicidal Activity IPOHE value associated with the molecule `CCOC(=O)COc1c(Cl)cc(F)c(-n2c(=O)cc(C(F)(F)F)n(C)c2=O)c1N`
Response: 100

Prompt: Name the reported Post-emerge Herbicidal Activity IPOHE value associated with the molecule CCOC(=O)C(C)Nc1c(OC)c(Cl)cc(F)c1-n1c(=O)cc(C(F)(F)F)n(C)c1=O (stereo not shown)
Response: 30

Prompt: Name the reported Post-emerge Herbicidal Activity IPOHE value associated with the molecule `COc1c(Cl)cc(F)c(-n2c(=O)c([N+](=O)[O-])c(C(F)(F)F)n(C)c2=O)c1[N+](=O)[O-]`
Response: 100

Prompt: Name the reported Post-emerge Herbicidal Activity IPOHE value associated with the molecule CCOC(=O)C(C)Nc1cc(Cl)cc(F)c1-n1c(=O)cc(C(F)(F)F)n(C)c1=O (stereo not shown)
Response: 100

Prompt: Name the reported Post-emerge Herbicidal Activity IPOHE value associated with the molecule CCOC(=O)C(C)Nc1cc(OC(F)F)cc(F)c1-n1c(=O)cc(C(F)(F)F)n(C)c1=O (stereo not shown)
Response: 95

Prompt: Name the reported Post-emerge Herbicidal Activity IPOHE value associated with the molecule `COc1c(Cl)cc(F)c(-n2c(=O)cc(C(F)(F)F)n(C)c2=O)c1NC(=O)c1cccc(C)c1`
Response: 100

Prompt: Name the reported Post-emerge Herbicidal Activity IPOHE value associated with the molecule `COc1c(Cl)cc(F)c(-n2c(=O)cc(C(F)(F)F)n(C)c2=O)c1N=CN(C)C`
Response: 10

Prompt: Name the reported Post-emerge Herbicidal Activity IPOHE value associated with the molecule `COC(=O)C=CCOc1c(Cl)cc(F)c(-n2c(=O)cc(C(F)(F)F)n(C)c2=O)c1N`
Response: 100

Prompt: Name the reported Post-emerge Herbicidal Activity IPOHE value associated with the molecule `C=Cc1ccc(C(=O)Nc2c(OC)c(Cl)cc(F)c2-n2c(=O)cc(C(F)(F)F)n(C)c2=O)cc1`
Response: 90

====

Test system: velvetleaf (Abutilon theophrasti, ABUTH)
Experiment: Pre-emerge test, greenhouse herbicide activity screening
Assay type: in vivo
Conditions: 250 g ai/ha; rating scale 0-100, 14 days after application
The compounds listed here are annotated with their Pre-emerge herbicidal activity, phytotoxicity rating ABUTH.
Just the number.

compound: COc1c(Cl)cc(F)c(-n2c(=O)cc(C(F)(F)F)n(C)c2=O)c1CC(C)(Cl)C(=O)OCc1ccccc1 (stereo not shown)
measurement: 100
--
compound: COc1c(Cl)cc(F)c(-n2c(=O)cc(C(F)(F)F)n(C)c2=O)c1CC(C)(Cl)C(=O)OCC(C)C (stereo not shown)
measurement: 100
--
compound: COc1c(Cl)cc(F)c(-n2c(=O)cc(C(F)(F)F)n(C)c2=O)c1CC(Cl)C(=O)OCCC#N (stereo not shown)
measurement: 80

Now consider the entry below.
Prompt: Observed Pre-emerge herbicidal activity, phytotoxicity rating ABUTH on velvetleaf (Abutilon theophrasti, ABUTH) for CCOCCOC(=O)C(Cl)Cc1c(OC)c(Cl)cc(F)c1-n1c(=O)cc(C(F)(F)F)n(C)c1=O (stereo not shown) , please.
Response: 100

====

The compounds listed here are annotated with their AMARE phytotoxicity rating.
Test system: redroot pigweed (Amaranthus retroflexus, AMARE)
Assay: Post-emerge test, greenhouse herbicide activity screening
Assay type: in vivo
Conditions: post-emerge, 250 g ai/ha, 14 days after application, rating scale 0-100
Just the number.

compound: COc1c(Cl)cc(F)c(-n2c(=O)cc(C(F)(F)F)n(C)c2=O)c1NC(=O)C=Cc1cccc(Cl)c1 [2-134]
AMARE phytotoxicity rating: 100
--
compound: COc1c(Cl)cc(F)c(-n2c(=O)cc(C(F)(F)F)n(C)c2=O)c1NC(=O)Cc1ccccc1 [2-151]
AMARE phytotoxicity rating: 20
--
compound: COc1c(Cl)cc(F)c(-n2c(=O)cc(C(F)(F)F)n(C)c2=O)c1NC(=O)CSC [2-168]
AMARE phytotoxicity rating: 50
--
compound: C=Cc1ccc(C(=O)Nc2c(OC)c(Br)cc(F)c2-n2c(=O)cc(C(F)(F)F)n(C)c2=O)cc1 [2-182]
AMARE phytotoxicity rating: 95
--
compound: COc1c(Cl)cc(F)c(-n2c(=O)cc(C(F)(F)F)n(C)c2=O)c1NC(=O)CSc1ccc2ccccc2c1 [2-169]
AMARE phytotoxicity rating: 0
--
compound: Cn1c(C(F)(F)F)cc(=O)n(-c2ccc(C#N)cc2NC(=O)C=Cc2ccccc2)c1=O [2-141]
AMARE phytotoxicity rating: 95
--
compound: COc1c(Cl)cc(F)c(-n2c(=O)cc(C(F)(F)F)n(C)c2=O)c1NC(=O)CCc1cc(C)ccc1C [2-130]
AMARE phytotoxicity rating: 100
--
compound: COc1c(Cl)cc(Cl)c(-n2c(=O)cc(C(F)(F)F)n(C)c2=O)c1NC(=O)c1ccc2ccccc2c1 [2-144]
AMARE phytotoxicity rating: 90

Prompt: Name the reported AMARE phytotoxicity rating value associated with the compound COc1c(Cl)cc(F)c(-n2c(=O)cc(C(F)(F)F)n(C)c2=O)c1NC(=O)C=Cc1ccccc1F [2-125]
Response: 100

Prompt: Name the reported AMARE phytotoxicity rating value associated with the compound Cn1c(C(F)(F)F)cc(=O)n(-c2c(F)cc(Cl)cc2NC2CC2)c1=O [2-147]
Response: 100

Prompt: Name the reported AMARE phytotoxicity rating value associated with the compound Cn1c(C(F)(F)F)cc(=O)n(-c2ccc(Cl)cc2NC(=O)C=Cc2ccccc2)c1=O [2-137]
Response: 100

Prompt: Name the reported AMARE phytotoxicity rating value associated with the compound C=Cc1ccc(C(=O)N(C(=O)c2ccc(C=C)cc2)c2c(OC)c(Br)cc(F)c2-n2c(=O)cc(C(F)(F)F)n(C)c2=O)cc1 [2-183]
Response: 10

Prompt: Name the reported AMARE phytotoxicity rating value associated with the compound CCOC(=O)CSCC(=O)Nc1c(OC)c(Cl)cc(F)c1-n1c(=O)cc(C(F)(F)F)n(C)c1=O [2-170]
Response: 30

====

The molecules listed here are annotated with their phytotoxicity rating DIGSA.
Test system: large crabgrass (Digitaria sanguinalis, DIGSA)
Experiment: Post-emerge test, greenhouse herbicide activity screening
Type: in vivo
Conditions: post-emerge, 250 g ai/ha, 14 days after application, rating scale 0-100

Study these solved cases before continuing.
molecule: Cn1c(C(F)(F)F)cc(=O)n(-c2ccc(OC(F)(F)F)cc2NC(=O)c2ccc3ccccc3c2)c1=O
phytotoxicity rating DIGSA: 30
//
molecule: CCOC(=O)COc1c(Cl)cc(F)c(-n2c(=O)cc(C(F)(F)F)n(C)c2=O)c1NC(=O)C=Cc1ccccc1
phytotoxicity rating DIGSA: 0
//
molecule: COc1c(Cl)cc(F)c(-n2c(=O)cc(C(F)(F)F)n(C)c2=O)c1NC(=O)c1c(F)cccc1F
phytotoxicity rating DIGSA: 0
//
molecule: COc1c(Cl)cc(F)c(-n2c(=O)cc(C(F)(F)F)n(C)c2=O)c1NC(=O)NCc1ccccc1
phytotoxicity rating DIGSA: 10
//
molecule: Cn1c(C(F)(F)F)cc(=O)n(-c2c(F)cc(Cl)c(O)c2NC(=O)c2ncccn2)c1=O
phytotoxicity rating DIGSA: 0
//
molecule: COc1c(Cl)cc(F)c(-n2c(=O)cc(C(F)(F)F)n(C)c2=O)c1NC(=O)c1ccc(CCl)cc1
phytotoxicity rating DIGSA: 20

Prompt: Name the reported phytotoxicity rating DIGSA value associated with the molecule `CNC(=O)N(C(=O)NC)c1c(OC)c(Cl)cc(F)c1-n1c(=O)cc(C(F)(F)F)n(C)c1=O`
Response: 0

Prompt: Name the reported phytotoxicity rating DIGSA value associated with the molecule `Cn1c(C(F)(F)F)cc(=O)n(-c2c(F)cc(Cl)c(OCC#N)c2N(C(=O)c2ccc(F)cc2F)C(=O)c2ccc(F)cc2F)c1=O`
Response: 0

Prompt: Name the reported phytotoxicity rating DIGSA value associated with the molecule `COc1c(Cl)cc(F)c(-n2c(=O)cc(C(F)(F)F)n(C)c2=O)c1N(C(=O)C=Cc1ccccc1Cl)C(=O)C=Cc1ccccc1Cl`
Response: 0

Prompt: Name the reported phytotoxicity rating DIGSA value associated with the molecule COc1c(Cl)cc(F)c(-n2c(=O)cc(C(F)(F)F)n(C)c2=O)c1NC(=O)OC(c1ccccc1)C1CC1 (stereo not drawn)
Response: 20

Prompt: Name the reported phytotoxicity rating DIGSA value associated with the molecule `COc1c(Cl)cc(F)c(-n2c(=O)cc(C(F)(F)F)n(C)c2=O)c1N(C(=O)c1ccc([N+](=O)[O-])cc1)C(=O)c1ccc([N+](=O)[O-])cc1`
Response: 0

Prompt: Name the reported phytotoxicity rating DIGSA value associated with the molecule `COc1c(Cl)cc(F)c(-n2c(=O)cc(C(F)(F)F)n(N)c2=O)c1NC(=O)c1ccc(F)cc1F`
Response: 10

Prompt: Name the reported phytotoxicity rating DIGSA value associated with the molecule `COc1c(Cl)cc(F)c(-n2c(=O)cc(C(F)(F)F)n(C)c2=O)c1NC(=O)OCc1ccccc1[N+](=O)[O-]`
Response: 60

Prompt: Name the reported phytotoxicity rating DIGSA value associated with the molecule `COc1c(Cl)cc(F)c(-n2c(=O)cc(C(F)(F)F)n(C)c2=O)c1NC(=O)OCc1ccc2c(c1)OCO2`
Response: 100

Prompt: Name the reported phytotoxicity rating DIGSA value associated with the molecule `COc1c(Cl)cc(F)c(-n2c(=O)cc(C(F)(F)F)n(C)c2=O)c1NC(=O)OCc1c(Cl)cccc1Cl`
Response: 50

Values compiled from patent US6355799B1.
